Experiment: Determination of pharmacokinetic properties in the mouse (cassette dosing)
Format: in vivo
Conditions: female, SJL/N Tac, plasma, iv, i.v. administration, nominal dose 1 mg/kg/compound
measurement.label: clearance (mL/min/kg)
Answer in mL/min/kg, number only, no unit symbol.

Illustrative cases are given below, each with its answer.
[[record]]
molecule = "COc1ccc(OC)c(COc2ccc(NC(C)=O)c(C(=O)O)c2)c1 [Compound G, reference compound]"
result_units = "mL/min/kg"
assay_result = 11.8

[[record]]
molecule = "CCC(=O)Nc1ccc(/C=C/c2ccccc2)cc1C(=O)O"
result_units = "mL/min/kg"
assay_result = 2

[[record]]
molecule = "CCC(=O)Nc1ccc(Sc2ccccc2C(F)(F)F)cc1C(=O)O"
result_units = "mL/min/kg"
assay_result = 0.55

[[record]]
molecule = "CCC(=O)Nc1ccc(OCc2ccccc2C(F)(F)F)cc1C(=O)O"
result_units = "mL/min/kg"
assay_result = 1.83


// returns reported clearance for input `CCC(=O)Nc1ccc(Cc2ccccc2)cc1C(=O)O` 0.3

// returns reported clearance for input `CCC(=O)Nc1ccc(Oc2ccccc2C(F)(F)F)cc1C(=O)O` 0.25

====

Test: Determination of pharmacokinetic properties in the mouse (cassette dosing)
Format: in vivo
Details: female, SJL/N Tac, plasma, iv, i.v. administration, nominal dose 1 mg/kg/compound
Parameter log10 of half-life: see the listing below.
In plain terms, each number is the log10 of measured half-life in h.

[[record]]
compound = "COc1ccc(OC)c(COc2ccc(NC(C)=O)c(C(=O)O)c2)c1 [Compound G, reference compound]"
assay_result = -0.52


// returns reported log10 of half-life for input `CCC(=O)Nc1ccc(/C=C/c2ccccc2)cc1C(=O)O` 1.00

====

Experiment: Determination of pharmacokinetic properties in the mouse (cassette dosing)
Type: in vivo
Conditions: female, SJL/N Tac, plasma, iv, i.v. administration, nominal dose 1 mg/kg/compound
Parameter half-life: see the listing below.

[[record]]
smiles_text = "CCC(=O)Nc1ccc(Oc2ccccc2C(F)(F)F)cc1C(=O)O"
measurement_label = "half-life"
assay_result = "3.1 h"


// returns reported half-life for input `CCC(=O)Nc1ccc(Cc2ccccc2)cc1C(=O)O` 6.6 h

// returns reported half-life for input `CCC(=O)Nc1ccc(NCc2ccccc2C(F)(F)F)cc1C(=O)O` 2.2 h

// returns reported half-life for input `CCC(=O)Nc1ccc(Sc2ccccc2C(F)(F)F)cc1C(=O)O` 4.6 h

====

Tested on: human T lymphoblast cell line (Jurkat)
Assay: Inhibition of T-cell proliferation (3H-TdR incorporation)
Format: cell-based
Details: Homo sapiens, 72 h; Jurkat cells, 3 days; read-out: Inhibition of T-cell proliferation in vitro. IC50
Description: Inhibition of T cell proliferation was studied in a functional assay. A human T lymphoblast cell line (Jurkat) was cultured in the presence and absence of DHODH inhibiting compounds. […] At the beginning of the last 4 hours period, the cultures were pulsed with 10 μl/well 0.1Ci/mmol ^3H-TdR and then harvested on filter papers and counted with a β-counter. The IC50 values for each compound were calculated from the obtained dose response curves. […]
measurement.label: pIC50
pIC50 (log units): -log10 of the concentration in mol/L.

Illustrative cases are given below, each with its answer.
[[record]]
compound = "COc1ccc(OC)c(COc2ccc(NC(C)=O)c(C(=O)O)c2)c1 [Compound G, reference compound]"
assay_result = 5.21

[[record]]
compound = "CCC(=O)Nc1ccc(OCc2ccccc2C(F)(F)F)cc1C(=O)O"
assay_result = 6.48

[[record]]
compound = "CCC(=O)Nc1ccc(CCc2ccccc2C(F)(F)F)cc1C(=O)O [Compound J, reference compound]"
assay_result = 5.54


// returns reported pIC50 for input `CCC(=O)Nc1ccc(Sc2ccccc2C(F)(F)F)cc1C(=O)O` 6.60
